Attribution: ChEMBL document CHEMBL3885861

# Species: Rattus norvegicus
# Test Description: Open TG-GATES - Regimen: Single
# Assay type: toxicity, organism-based, Sprague-Dawley
# Design: regimen Single, gender Male, age 6 weeks
# Measurement Parameters: in vivo, po, 0 mg/kg, 3 h, tissue Plasma, route gavage, dose level Control
Endpoint Label: TG

Past entries and their recorded results:
{"columns": ["Molecule", "Result"],
 "data": [
  ["COc1cc2c(c(OC)c1OC)-c1ccc(OC)c(=O)cc1[C@@H](NC(C)=O)CC2 [COLCHICINE]", "61 mg/dL"],
  ["NNC(=O)c1ccncc1 [ISONIAZID]", "90.6 mg/dL"],
  ["CCOC(=O)CCC(=O)O[C@H]1[C@H](O[C@@H]2[C@@H](C)[C@H](O[C@H]3C[C@@](C)(OC)[C@@H](O)[C@H](C)O3)[C@@H](C)C(=O)O[C@H](CC)[C@@](C)(O)[C@H](O)[C@@H](C)C(=O)[C@H](C)C[C@@]2(C)O)O[C@H](C)C[C@@H]1N(C)C [ERYTHROMYCIN ETHYLSUCCINATE]", "55.4 mg/dL"],
  ["CN(C)CCN(Cc1cccs1)c1ccccn1", "42.6 mg/dL"],
  ["COc1ccc2[nH]c([S+]([O-])Cc3ncc(C)c(OC)c3C)nc2c1 (stereo unspecified) [OMEPRAZOLE]", "59.4 mg/dL"]
]}

[in] // fetch TG given entry Cc1ccc(C)c(OCCCC(C)(C)C(=O)O)c1 [GEMFIBROZIL]
[out] 155.8 mg/dL

[in] // fetch TG given entry CC(C)OC(=O)C(C)(C)Oc1ccc(C(=O)c2ccc(Cl)cc2)cc1 [FENOFIBRATE]
[out] 41.2 mg/dL

[in] // fetch TG given entry CCCNC(=O)NS(=O)(=O)c1ccc(Cl)cc1 [CHLORPROPAMIDE]
[out] 53.8 mg/dL

[in] // fetch TG given entry CN1C(=O)CN=C(c2ccccc2)c2cc(Cl)ccc21 [DIAZEPAM]
[out] 52.2 mg/dL

[in] // fetch TG given entry CC/C(=C(\c1ccccc1)c1ccc(OCCN(C)C)cc1)c1ccccc1 [TAMOXIFEN]
[out] 94.6 mg/dL

----------
# LIVER values compiled below
# Species on record: Rattus norvegicus
# Test Description: Open TG-GATES - Regimen: Single
# Assay type: toxicity, organism-based, Sprague-Dawley
# Design: regimen Single, gender Male, age 6 weeks
# Measurement Parameters: in vivo, po, 1000 mg/kg, 24 h, tissue Liver, route gavage, dose level High
Give the value, in units of g, as a plain number.

{"columns": ["Compound", "Measured Number"],
 "data": [
  ["COC1=CC(=O)C[C@@H](C)[C@]12Oc1c(Cl)c(OC)cc(OC)c1C2=O", 10.5]
]}

[in] // fetch LIVER given entry COc1ccc2[nH]c([S+]([O-])Cc3ncc(C)c(OC)c3C)nc2c1 (stereo not given)
[out] 12.1

[in] // fetch LIVER given entry NC(N)=Nc1nc(CSCCC(N)=NS(N)(=O)=O)cs1
[out] 9.6

[in] // fetch LIVER given entry CCOC(=O)CCC(=O)O[C@H]1[C@H](O[C@@H]2[C@@H](C)[C@H](O[C@H]3C[C@@](C)(OC)[C@@H](O)[C@H](C)O3)[C@@H](C)C(=O)O[C@H](CC)[C@@](C)(O)[C@H](O)[C@@H](C)C(=O)[C@H](C)C[C@@]2(C)O)O[C@H](C)C[C@@H]1N(C)C [ERYTHROMYCIN ETHYLSUCCINATE]
[out] 9.4

[in] // fetch LIVER given entry CC(C)OC(=O)C(C)(C)Oc1ccc(C(=O)c2ccc(Cl)cc2)cc1 [FENOFIBRATE]
[out] 9.6
